These entries and their values trace back to PubChem BioAssay.

Entries annotated with measured composite z-score
# Experimental Target: Streptavidin (Streptomyces avidinii) (UniProt P22629)
# Sequence (P22629 whole entry, looked up): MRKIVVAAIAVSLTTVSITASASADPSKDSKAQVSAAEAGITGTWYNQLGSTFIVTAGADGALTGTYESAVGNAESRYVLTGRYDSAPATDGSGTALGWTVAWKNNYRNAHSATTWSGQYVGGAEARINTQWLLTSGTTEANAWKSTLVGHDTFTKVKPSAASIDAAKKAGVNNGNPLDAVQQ
# Protocol Details: compounds binding control protein streptavidin – biophysical, small-molecule microarray, 635/667 nm fluorescence, artefact control for SMM compound annotation, primary screen (AID 1147);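 also: signal reflects streptavidin binding to arrayed compounds as a control protein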
# Condition Parameters: higher = more signal
Quantity: composite z-score

Compound	Experimental Target	Quantity	Assay Value
CC=CC(O)C1C=CC2C(=O)NC(=O)C2N1Nc1ccc(Cl)cc1Cl (centres undefined)	Streptavidin (Streptomyces avidinii) (UniProt P22629)	composite z-score	0.0171
CCCc1cc2c(n1CCc1ccc(Cl)cc1)C(C)C1CN(C(=O)c3ccccc3)C(C)(C(=O)OC)C21 (centres undefined)	Streptavidin (Streptomyces avidinii) (UniProt P22629)	composite z-score	1.93
COCCOC(=O)N1C(=O)[C@@]2(c3cc(C#CCC(C(=O)OC)C(=O)OC)ccc31)[C@H](C(=O)Nc1nc3ccccc3s1)[C@H]1C(=O)O[C@H](c3ccccc3)[C@H](c3ccccc3)N1[C@@H]2c1ccc(OCCO)cc1	Streptavidin (Streptomyces avidinii) (UniProt P22629)	composite z-score	0.532
CC1CC/C=C\[C@H]2OC34C=CCN(CCN5CCOCC5)C(=O)[C@H]3N(CCCO)C(=O)[C@@H]4C2C(=O)O1 (some centres undefined)	Streptavidin (Streptomyces avidinii) (UniProt P22629)	composite z-score	-0.601
